Every entry's value here was drawn from patent US20240228562A1.

- System name: T1, human CTGF (Homo sapiens, UniProt P29279, H83D)
- T1 construct: purchased Creative Biomart
- T1 sequence (P29279 with tags, fused parts or gaps H83D): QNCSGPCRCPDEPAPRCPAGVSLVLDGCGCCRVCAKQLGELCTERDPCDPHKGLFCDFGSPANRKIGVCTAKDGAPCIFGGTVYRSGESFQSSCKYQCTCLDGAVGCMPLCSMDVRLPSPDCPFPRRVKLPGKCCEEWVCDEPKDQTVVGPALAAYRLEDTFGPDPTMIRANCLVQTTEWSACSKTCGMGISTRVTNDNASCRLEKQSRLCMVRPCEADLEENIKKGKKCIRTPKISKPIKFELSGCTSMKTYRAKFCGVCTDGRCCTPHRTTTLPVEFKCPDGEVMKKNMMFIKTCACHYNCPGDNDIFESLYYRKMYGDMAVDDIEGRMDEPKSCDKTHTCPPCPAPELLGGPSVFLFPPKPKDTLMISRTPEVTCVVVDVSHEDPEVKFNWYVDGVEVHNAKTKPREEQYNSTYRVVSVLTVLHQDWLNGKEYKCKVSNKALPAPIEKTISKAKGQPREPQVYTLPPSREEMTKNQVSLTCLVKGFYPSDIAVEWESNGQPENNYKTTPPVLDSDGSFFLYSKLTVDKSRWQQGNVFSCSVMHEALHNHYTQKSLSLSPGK
- Assay explanation: SPR binding kinetics and affinity, human CTGF
- Reported conditions: 25° C., 1:1 binding model
Recorded metric: human CTGF kon (M⁻¹ s⁻¹)
Give the number; M⁻¹ s⁻¹ is assumed, so skip it.

Lab note: SEQ ID NO: 7: parent CTGF-binding hNGAL lipocalin mutein (protein, lipocalin mutein) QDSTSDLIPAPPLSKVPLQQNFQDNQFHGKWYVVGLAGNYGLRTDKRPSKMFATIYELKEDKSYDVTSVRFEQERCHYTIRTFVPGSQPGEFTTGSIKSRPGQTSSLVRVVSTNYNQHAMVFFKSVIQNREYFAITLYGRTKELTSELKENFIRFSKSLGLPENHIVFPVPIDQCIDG gave human CTGF kon of 97600

Lab note: SEQ ID NO: 35: optimized CTGF-binding hNGAL lipocalin mutein (protein, lipocalin mutein) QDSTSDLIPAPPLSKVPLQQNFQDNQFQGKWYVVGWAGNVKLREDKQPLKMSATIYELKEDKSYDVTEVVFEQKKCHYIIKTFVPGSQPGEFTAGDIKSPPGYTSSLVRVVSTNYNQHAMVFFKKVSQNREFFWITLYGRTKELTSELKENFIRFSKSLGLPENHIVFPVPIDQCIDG gave human CTGF kon of 108000

Lab note: SEQ ID NO: 13: optimized CTGF-binding hNGAL lipocalin mutein (protein, lipocalin mutein) QDSTSDLIPAPPLSKVPLQQNFQDNQFQGKWYVVGLAGNAILREDKYPAKMFATIYELKEDKSYDVTSVRFENKSCVYTSKTFVPGSQPGEFTTGNIKSAPGQTSTLVRVVSTNYNQHAMVFFKHVSQNREFFVITLYGRTKELTSELKENFIRFSKSLGLPENHIVFPVPIDQCIDG gave human CTGF kon of 51000

Lab note: SEQ ID NO: 6: optimized CTGF-binding hNGAL lipocalin mutein (protein, lipocalin mutein) QDSTSDLIPAPPLSKVPLQQNFQDNQFQGKWYVVGRAGNNQLREDKSPPKMWATIYELKEDKSYDVTHVHFSTKKCRYIIDTFVPGSQPGEFTAGAIKSGPGLTSPLVRVVSTNYNQHAMVFFKWVTQNREWFTITLYGRTKELTSELKENFIRFSKSLGLPENHIVFPVPIDQCIDG gave human CTGF kon of 290000

Lab note: SEQ ID NO: 28: optimized CTGF-binding hNGAL lipocalin mutein (protein, lipocalin mutein) QDSTSDLIPAPPLSKVPLQQNFQDNQFQGKWYVVGLAGNYRLREDKDPSKMGATIYELKEDKSYDVTQVQFDDKKCLYVIETFVPGSQPGEFTLGAIKSYPGLTSQLVRVVSTNYNQHAMVFVKKVWPNLEYFQIVLYGRTKELTSELKENFIRFSKSLGLPENHIVFPVPIDQCIDG gave human CTGF kon of 50400
